B1: LMNB1 (parent)
chain: LYKEELEQTYHAKLENARLSSEMN

Variants of: B1
Test: protein stability index of a GFP-peptide fusion (GPS, HEK-293T) (PSI 1-6); higher = more stable;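 note: lentivirally expressed fusions sorted by FACS into six bins by GFP to DsRed ratio, PSI derived from sequencing read proportions per bin multiplied by bin number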
Conditions: c terminus: a fixed tail appended
Each record here notes measured protein stability index.
REPORTED ENDPOINT: protein stability index

>  <RESIDUE CODES>
LYKEELENTYHAKLENARLSSEMN [Q8N]

>  <REPORTED ENDPOINT>
protein stability index

>  <MEASURED RESULT>
2.8

$$$$
>  <RESIDUE CODES>
KYKEELEQTYHAKLENARLSSEMN [L1K]

>  <REPORTED ENDPOINT>
protein stability index

>  <MEASURED RESULT>
2.97

$$$$
>  <RESIDUE CODES>
LYKEELECTYHAKLENARLSSEMN [Q8C]

>  <REPORTED ENDPOINT>
protein stability index

>  <MEASURED RESULT>
2.86

$$$$
>  <RESIDUE CODES>
LYYEELEQTYHAKLENARLSSEMN [K3Y]

>  <REPORTED ENDPOINT>
protein stability index

>  <MEASURED RESULT>
2.34

$$$$
>  <RESIDUE CODES>
PYKEELEQTYHAKLENARLSSEMN [L1P]

>  <REPORTED ENDPOINT>
protein stability index

>  <MEASURED RESULT>
4.45

$$$$
>  <RESIDUE CODES>
LYKEELEQTYHAKFENARLSSEMN [L14F]

>  <REPORTED ENDPOINT>
protein stability index

>  <MEASURED RESULT>
2.58

$$$$
>  <RESIDUE CODES>
LYKEELEQTYHAKLENARGSSEMN [L19G]

>  <REPORTED ENDPOINT>
protein stability index

>  <MEASURED RESULT>
3.88

$$$$
>  <RESIDUE CODES>
LYKEHLEQTYHAKLENARLSSEMN [E5H]

>  <REPORTED ENDPOINT>
protein stability index

>  <MEASURED RESULT>
2.27

$$$$
>  <RESIDUE CODES>
LYKEELEQTYVAKLENARLSSEMN [H11V]

>  <REPORTED ENDPOINT>
protein stability index

>  <MEASURED RESULT>
3.53

$$$$
>  <RESIDUE CODES>
LYKEELEQMYHAKLENARLSSEMN [T9M]

>  <REPORTED ENDPOINT>
protein stability index

>  <MEASURED RESULT>
2.65

$$$$
>  <RESIDUE CODES>
LYKEELEQTYHAKLENFRLSSEMN [A17F]

>  <REPORTED ENDPOINT>
protein stability index

>  <MEASURED RESULT>
1.82

$$$$
